Target: UniProt:O00482
Test: Antagonist activity at human LRH-1
reported_property: pIC50
The value called pIC50 is obtained by taking minus log10 of the concentration in mol/L.

CC(=O)c1cccc(-c2cccc(-c3ccn(CCN4CCOCC4)n3)c2)c1 :: 5.30

Field: next compound
Test item "Cc1nc(N(C)C)nc(-c2cccc(-c3ccn(CCN(C)C)n3)c2)c1C" ; UniProt:O00482; reported pIC50 was 5.22

---

Target: Nuclear receptor subfamily 5 group A member 2 (Homo sapiens)
Experiment: Antagonist activity at human recombinant LRH-1 LBD ([…] to 541 residues)
reported_property: pIC50
The value called pIC50 is obtained by taking minus log10 of the concentration in mol/L.

Lab note: measured pIC50 of "O=C(c1ccc(OCCN2CCCCC2)cc1)c1c(-c2ccc(O)cc2)sc2c(C(=O)c3ccc(OCCN4CCCCC4)cc3)c(O)ccc12" was 5.51

---

Reported pIC50 is given for each of the following compounds.
Molecular target: Nuclear receptor subfamily 5 group A member 2 (Homo sapiens, UniProt O00482)
Sequence (O00482 whole entry, the tested form may be a part): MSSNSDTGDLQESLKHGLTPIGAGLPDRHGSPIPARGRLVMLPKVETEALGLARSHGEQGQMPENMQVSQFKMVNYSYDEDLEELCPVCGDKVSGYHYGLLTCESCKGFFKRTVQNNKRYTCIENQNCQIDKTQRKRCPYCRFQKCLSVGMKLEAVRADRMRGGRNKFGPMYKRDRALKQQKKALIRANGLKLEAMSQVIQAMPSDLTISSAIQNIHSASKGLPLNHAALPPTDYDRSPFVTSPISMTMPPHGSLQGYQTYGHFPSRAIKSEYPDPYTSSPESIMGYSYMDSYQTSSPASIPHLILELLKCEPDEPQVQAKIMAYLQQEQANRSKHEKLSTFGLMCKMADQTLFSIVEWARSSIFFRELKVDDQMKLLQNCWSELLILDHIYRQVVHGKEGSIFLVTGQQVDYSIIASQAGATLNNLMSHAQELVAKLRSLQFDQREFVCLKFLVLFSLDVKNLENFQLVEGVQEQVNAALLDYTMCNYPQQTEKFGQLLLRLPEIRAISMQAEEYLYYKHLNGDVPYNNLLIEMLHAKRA
Assay: Inhibition of full length LRH1 transfected in HEK293T cells incubated for 20 hrs by luciferase reporter assay
Type: cell-based
The value called pIC50 is obtained by taking minus log10 of the concentration in mol/L.

Lab note: measured pIC50 of "O=c1cc(N2CCN(c3cccc(C(F)(F)F)c3)CC2)[nH]c(=O)n1C1CCCCC1" was 6.49

Lab note: measured pIC50 of "O=c1cc(N2CCN(c3cccc(Cl)c3)CC2)[nH]c(=O)n1C1CCCCC1" was 5.43
